Target: T1, human tissue factor pathway inhibitor (TFPI) (human, UniProt P10646 29-304, limits assumed); further: test concentration or dose not given here
T1 sequence (looked up): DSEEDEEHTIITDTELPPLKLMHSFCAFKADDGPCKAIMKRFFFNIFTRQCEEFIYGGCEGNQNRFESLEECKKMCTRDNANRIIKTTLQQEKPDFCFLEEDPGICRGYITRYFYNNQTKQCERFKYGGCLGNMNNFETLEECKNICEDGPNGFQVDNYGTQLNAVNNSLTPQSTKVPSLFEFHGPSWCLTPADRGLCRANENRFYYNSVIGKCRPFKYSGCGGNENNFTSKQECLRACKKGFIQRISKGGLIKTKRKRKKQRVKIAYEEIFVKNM
Assay: cell-based or functional assay
Each record here notes measured % inhibition of hTFPI activity.
Write the answer as a number in %, unit excluded.

Example cases with answers are listed next.
TP-2A8 Fab (Fab, V domains shown, Human Fab from HuCal Gold, expressed in E. coli TG1; also called Fab-2A8) VH: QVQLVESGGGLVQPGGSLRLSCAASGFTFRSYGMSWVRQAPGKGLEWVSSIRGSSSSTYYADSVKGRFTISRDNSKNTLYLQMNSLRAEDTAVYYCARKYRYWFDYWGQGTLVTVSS VL: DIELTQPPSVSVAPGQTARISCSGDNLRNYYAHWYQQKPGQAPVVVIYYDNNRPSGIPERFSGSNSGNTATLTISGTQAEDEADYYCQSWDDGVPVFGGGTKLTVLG | 100
TP-2C7 Fab (Fab, V domains shown, Human Fab from HuCal Gold, expressed in E. coli TG1) VH: QVQLQQSGPGLVKPSQTLSLTCAISGDSVSSNSAAWGWIRQSPGRGLEWLGIIYYRSKWYNHYAVSVKSRITINPDTSKNQFSLQLNSVTPEDTAVYYCARSNWSGYFDYWGQGTLVTVSS VL: DIQMTQSPSSLSASVGDRVTITCRASQDIRNNLAWYQQKPGKAPKLLIYAASSLQSGVPSRFSGSGSGTDFTLTISSLQPEDFAVYYCQQRNGFPLTFGQGTKVEIKR | 0
TP-2A2 Fab (Fab, V domains shown, Human Fab from HuCal Gold, expressed in E. coli TG1) VH: QVQLVESGGGLVQPGGSLRLSCAASGFTFSNNAMNWVRQAPGKGLEWVSTISYDGSNTYYADSVKGRFTISRDNSKNTLYLQMNSLRAEDTAVYYCARQAGGWTYSYTDVWGQGTLVTVSS VL: DIELTQPPSVSVAPGQTARISCSGDNIRTYYVHWYQQKPGQAPVVVIYGDSKRPSGIPERFSGSNSGNTATLTISGTQAEDEADYYCQSYDSEADSEVFGGGTKLTVLG | 23
TP-4G8 Fab (Fab, V domains shown, Human Fab from HuCal Gold, expressed in E. coli TG1) VH: QVQLVESGGGLVQPGGSLRLSCAASGFTFSTYAMHWVRQAPGKGLEWVSTISGYGSFTYYADSVKGRFTISRDNSKNTLYLQMNSLRAEDTAVYYCARNGRKYGQMDNWGQGTLVTVSS VL: DIELTQPPSVSVAPGQTARISCSGDKLGSKSVHWYQQKPGQAPVLVIYRDTDRPSGIPERFSGSNSGNTATLTISGTQAEDEADYYCQTYDYILNVFGGGTKLTVLG | 39
TP-4B7 Fab (Fab, V domains shown, Human Fab from HuCal Gold, expressed in E. coli TG1) VH: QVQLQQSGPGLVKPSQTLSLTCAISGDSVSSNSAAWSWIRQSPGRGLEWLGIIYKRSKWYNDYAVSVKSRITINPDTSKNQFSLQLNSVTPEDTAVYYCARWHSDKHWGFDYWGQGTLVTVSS VL: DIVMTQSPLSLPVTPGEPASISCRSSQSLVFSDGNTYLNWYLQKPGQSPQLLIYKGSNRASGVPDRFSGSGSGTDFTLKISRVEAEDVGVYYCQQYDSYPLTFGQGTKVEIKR | 100
TP-2B3 Fab (Fab, V domains shown, Human Fab from HuCal Gold, expressed in E. coli TG1) VH: QVQLQQSGPGLVKPSQTLSLTCAISGDSVSSNSAAWGWIRQSPGRGLEWLGMIYYRSKWYNSYAVSVKSRITINPDTSKNQFSLQLNSVTPEDTAVYYCARTMSKYGGPGMDVWGQGTLVTVSS VL: DIVLTQSPATLSLSPGERATLSCRASQNIGSNYLAWYQQKPGQAPRLLIYGASTRATGVPARFNGSGSGTDFTLTISSLEPEDFAVYYCQQLNSIPVTFGQGTKVEIKR | 100

Request: # input binder: TP-4E8 Fab (Fab, V domains shown, Human Fab from HuCal Gold, expressed in E. coli TG1) VH: QVQLVESGGGLVQPGGSLRLSCAASGFTFNDYAMSWVRQAPGKGLEWVSLIESVSSSTYYADSVKGRFTISRDNSKNTLYLQMNSLRAEDTAVYYCARTIGVLWDDVWGQGTLVTVSS VL: DIELTQPPSVSVAPGQTARISCSGDALGSKYVSWYQQKPGQAPVLVIYGDNKRPSGIPERFSGSNSGNTATLTISGTQAEDEADYYCQSYTYSLNQVFGGGTKLTVLG ; wanted: its % inhibition of hTFPI activity
Result: 29

Request: Then TP-3C1 Fab (Fab, V domains shown, Human Fab from HuCal Gold, expressed in E. coli TG1; Shares its VL with TP-2G9 and its VH with TP-3F2) VH: QVQLVESGGGLVQPGGSLRLSCAASGFTFSSYSMHWVRQAPGKGLEWVSGISYSSSFTYYADSVKGRFTISRDNSKNTLYLQMNSLRAEDTAVYYCARALGGGVDYWGQGTLVTVSS VL: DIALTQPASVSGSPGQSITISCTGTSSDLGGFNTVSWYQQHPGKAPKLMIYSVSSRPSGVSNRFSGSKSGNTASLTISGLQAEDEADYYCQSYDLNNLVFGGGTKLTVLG ?
Result: 0

Request: Then TP-2A5.1 Fab (Fab, V domains shown, Human Fab from HuCal Gold, expressed in E. coli TG1) VH: QVQLVESGGGLVQPGGSLRLSCAASGFTFSSYGSWVRQAPGKGLEWVSVISGSGSSTYYADSVKGRFTISRDNSKNTLYLQMNSLRAEDTAVYYCARVNISTHFDVWGQGTLVTVSS VL: DIELTQPPSVSVAPGQTARISCSGDNIPEKYVHWYQQKPGQAPVLVIHGDNNRPSGIPERFSGSNSGNTATLTISGTQAEDEADYYCQSFDAGSYFVFGGGTKLTVLG ?
Result: 30

Request: Then TP-3G3 Fab (Fab, V domains shown, Human Fab from HuCal Gold, expressed in E. coli TG1) VH: QVQLVESGGGLVQPGGSLRLSCAASGFTFSSYSMSWVRQAPGKGLEWVSSISSSSSNTYYGDSVKGRFTISRDNSKNTLYLQMNSLRAEDTAVYYCARMHYKGMDIWGQGTLVTVSS VL: DIQMTQSPSSLSASVGDRVTITCRASQNIHSHLNWYQQKPGKAPKLLIYDASSLQSGVPSRFSGSGSGTDFTLTISSLQPEDFAVYYCQQYYDYPLTFGQGTKVEIKR ?
Result: 15
